tested on: MS2 coat protein; experiment: apparent KD of MS2 coat protein; designed switch direction (-1 OFF switch, 1 ON switch): -1; higher = weaker reporter binding; details: input ligand: none
Measured property: apparent KD of MS2 coat protein
Enter the number, and then the unit.

Field: example entries. Status: answers known.
| Residue string | apparent KD of MS2 coat protein |
| --- | --- |
| GAAAGAGUUCAGGAUAUCAGAGUCCAGCGACACUGAGAAGGGAAAACAUGAGGAUCACCCAUGUGGUCCUAAGC [Eternabot (L2) Solution 80] (Eterna round: R97, puzzle: Exclusion 6) | 0.105 µM |
| AGUUGGCGAGGAUAUACAUGAGGAUCACCCAUGUAAGAGAUACGAGUAAGGUAAAUAUGUAGAAGGCGCUGACA [JR_Ex3_Sub076] (Eterna round: R97, puzzle: Exclusion 3) | 0.0269 µM |
| UAAAAGCUAGGAUAUGCAAGGUCCGACAUGAGGAUCACCCAUGUGCUCCUAUGCACAUUUGCAGAAGGAGCGAAAA [EX5 A.6] (Eterna round: R97, puzzle: Exclusion 5) | 0.083 µM |

Challenge: Recorded apparent KD of MS2 coat protein for AGAGAGUCAGGAUAUGACGAAGAGAACAUGAGGAUCACCCAUGUAGCUUCGUAAUCAUCGUCAGAAGGGACGAACU [JR_Ex5_Sub090] (Eterna round: R97, puzzle: Exclusion 5) , please?
Response given: 0.0148 µM

Challenge: Recorded apparent KD of MS2 coat protein for UGAGCUUGUGUGAGGAUAUUUCGAGUGAAAGCUUGAGAGAAGGCACAUGAGGAUCACCCAUGUAAGCGAGUUCG [-26.1, -24 kcal, A 28%, 1bis-1] (Eterna round: R97, puzzle: Brourd's mod of Exclusion 4) , please?
Response given: 0.0868 µM

Challenge: Recorded apparent KD of MS2 coat protein for AUACGCCAGGUAGGAUAUAGUACGUCGGCAACAUGAGGAUCACCCAUGUGGCCUCGUGUCUGGCACUAGAAGGGCCGAGGCCUU [Raatalave] (Eterna round: R96, puzzle: Exclusion NG 2) , please?
Response given: 0.0309 µM

Challenge: Recorded apparent KD of MS2 coat protein for AUAAUGUAAGGAUAUAUGAAUCACGGUGAUACACCGUGAAGAUAGAAGGUACAUGAGGAUCACCCAUGUAAGGC [Mod of Anonveat 12 - Jieux - Exclusion 4] (Eterna round: R97, puzzle: Exclusion 4) , please?
Response given: 0.021 µM

----------
In this section we review reported apparent KD of K4 kissing-loop reporter values for a set of sequences.
test system: K4 kissing-loop RNA reporter; experiment: apparent KD of K4 kissing-loop reporter; higher = weaker reporter binding; conditions: Eterna round: R107; input ligand: arginine 13.2 mM

Field: example entries. Status: answers known.
| Residue string | Measured property | Recorded result |
| --- | --- | --- |
| UUCAGACUACUACUAGACAGUAGUAUAUACUAGGAUAUCCAGAUAUGGAGAAGGAGUGAUGUUCCCUAGUAGUAGUGAAUUAAAU [KL-XFMN-A5] | apparent KD of K4 kissing-loop reporter | 380 nM |
| UAACUGAAGUGAUGUUUCAGUUCGUCGGAUACCAGUGCCGAUCAUCACCCUUGGCAGCCGUAAUAUUACUUAACAAUGACAGGUU [theeternabot_exclusion_KL_Theo_A_7] | apparent KD of K4 kissing-loop reporter | 107 nM |
| AUUUUUUACAGAAGGAGCGUGUUUUUAUAAUCAUUUAUCUUAGCGAGUGAUGUUCGCUUUACACAGGUAGGUCGCUGUUUAUUUA [JR_Nu_ExcArginiB_Sub028] | apparent KD of K4 kissing-loop reporter | 130 nM |
| GGGUGGCAGGCGGCCGCCACUCUGAGCACCCACUGAGUGAUGUUCGUGGCGUAAGCCUGUUCGUAGAGGACCGGGUUUGUUGUUC [Exclusion Tryptophan B GF 15] | apparent KD of K4 kissing-loop reporter | 162 nM |

Challenge: Recorded apparent KD of K4 kissing-loop reporter for GGCAUGGUGACGCGGCUGCCAUGCACUUGGGAGGAUAUGUUUCGUGACAGAAGGCCCAGUGAUGUUGGGUCUGUUCAAAAGGACU [Lerere] , please?
Response given: 135 nM

Challenge: Recorded apparent KD of K4 kissing-loop reporter for GAAGGAGACAACAUCACUACUCCUUCAGACUAGGAUAUCAGGAAACUGAGAAGGAGUCUACUUGCAGUGAUGUUGCAAGAAUAAU [[F]''-[K]'-[F]'-[F1]-[F2]-[K1]-[K2]_Design2] , please?
Response given: 123 nM

----------
In this section we review reported apparent KD of MS2 coat protein values for a set of sequences.
tested on: MS2 coat protein; experiment: apparent KD of MS2 coat protein; designed switch direction (-1 OFF switch, 1 ON switch): 1; higher = weaker reporter binding; details: input ligand: microRNA oligo, concentration not stated
Enter the number, and then the unit.

Challenge: Recorded apparent KD of MS2 coat protein for UGGUACAUGGGAGGAUAUCAUGCAAACAUGAGGAUCACCCAUGUAACCAUGGAGACAUGGAUAUAUGAGAAGGCCCAUGUACCU [JL SSNG1 3.51] (Eterna round: R96, puzzle: Same State NG 2) , please?
Response given: 19.6 nM

Challenge: Recorded apparent KD of MS2 coat protein for AUUAUUAAUGCAGGAUAUGAUUAACAUGAGGAUCACCCAUGUGGUGUUGUGAGUAAGGAGAGUGAUCAGAAGGGCAUUUUUAUU [JMF's solution 13] (Eterna round: R96, puzzle: Same State NG 2) , please?
Response given: 353 nM

Challenge: Recorded apparent KD of MS2 coat protein for AUUACUAAUGCAGGAUAUGAUUAACAUGAGGAUCACCCAUGUGGUGUUGUGAGUAAGGAGAGUGAUCAGAAGGGCAUUUUUUUU [JMF's solution 29] (Eterna round: R96, puzzle: Same State NG 2) , please?
Response given: 362 nM

Challenge: Recorded apparent KD of MS2 coat protein for CUGAGCAGUCAAGGAUAUCACGUCGUUUAGACGUGAGAAGGUGAUUAAUACAUGAGGAUCACCCAUGUAAUACAUGAAGCUCAG [SSNG1/11-A3] (Eterna round: R96, puzzle: Same State NG 1) , please?
Response given: 30.9 nM

Challenge: Recorded apparent KD of MS2 coat protein for AUUAUUUGUGCAGGAUAUGAUUAACAUGAGGAUCACCCAUGUGGUGUUGUGAGUAAGGAGAGUGAUCAGAAGGGCAUUUUUUUU [JMF's solution 61] (Eterna round: R96, puzzle: Same State NG 2) , please?
Response given: 476 nM

----------
system: K4 kissing-loop RNA reporter; experiment: apparent KD of K4 kissing-loop reporter; higher = weaker reporter binding; settings: Eterna round: R107; input ligand: arginine 13.2 mM;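 note: bound reporter read as fluorescence of individual clusters on recovered sequencing chips by microscopy, with normalized cluster intensities fitted with a binding model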
Measured property: apparent KD of K4 kissing-loop reporter (nM)
A number alone suffices; assume nM.

Field: example entries. Status: answers known.
| Residue string | Target desc | Recorded result |
| --- | --- | --- |
| UGACAUUGCUCAGAUACCAGACAUGAGCAUCAGCCAUGUGCCAAAUACGUACAAAUAAAUGUCCCUUGGCAGCUGAGCAAUGUCU [TheoBX 12] | K4 kissing-loop RNA reporter | 30.7 |
| GGAUAGGACAGAGGAUAUCCAGUGAUGUUGGAGAAUUCUCCUUCAUCAUGUCACAAAAGUGGCAUGGGAGAAGGCUGUCCUAUCG [Mod of Eli's FmnBX 29 v3] | K4 kissing-loop RNA reporter | 579 |
| UGAGUUAGACAAAAGUCUAGCUCUGGUGAAGGAGCGUCCGAAAGGACAGGUAGGUCGCACCACCUGAGUGAUGUUCAGAAUCCUU [KL-SSArg-A22] | K4 kissing-loop RNA reporter | 506 |
| GUUACGCAUGGAAGGAGCGCUCUCCGGCUUAAUAACACAGUGAUGUUGUGAAUUUGCCGAAAGCAGGUAGGUCGCCAUGUGUAAC [Ex Arginine B K4 10] | K4 kissing-loop RNA reporter | 359 |
| AGGUAUGUCUGAAGGAGCGACUAAGAAGCAGUGAUGUUGCUAAGUAGUAAGUAGCUACGUAGUCAGGUAGGUCGCAGAUAUACCU [Arg B SS t14] | K4 kissing-loop RNA reporter | 348 |

Challenge: Recorded apparent KD of K4 kissing-loop reporter for GAUAUAGAGGCGGCCGCCACUAGUGAUGUUAGUGAUGUUAGAUAGAGAAUAGAACAGAGGUGGGAUAGGACCGGGCCAGAUAGAG [whbob_SS_Tryp_B_w34] , please?
Response given: 72.7

Challenge: Recorded apparent KD of K4 kissing-loop reporter for GCCUAGUGAUGUUGGGUAAUUUAAACCGGGCGAGGACCGGUACGGCCGCCACUCGGAAACACAACAAAAUUUAAUUUAAUUUAAA [Exclusion - Trytophan A] , please?
Response given: 138

Challenge: Recorded apparent KD of K4 kissing-loop reporter for AUCAGCCUCAGAAGGAGCGUGAGUUUUAAGAGGCUGGAGUGAUGUUCCAGACAUAACGACUCACAGGUAGGUCGCUGAGACUAGU [Arg B SS t1] , please?
Response given: 99.8

Challenge: Recorded apparent KD of K4 kissing-loop reporter for AAUGUACAAGUGAUGUUUGUACUUUCCGAAGGAGCGUCUAAUAAGACAGGUAGGUCGCGGAUUCUCUAAAUUAUCAGGUCAUUAA [JR_ExcArginiA_Sub018] , please?
Response given: 85.4
